Experimental System: Glycogen synthase kinase-3 beta (Homo sapiens, UniProt P49841)
Sequence (P49841 whole entry): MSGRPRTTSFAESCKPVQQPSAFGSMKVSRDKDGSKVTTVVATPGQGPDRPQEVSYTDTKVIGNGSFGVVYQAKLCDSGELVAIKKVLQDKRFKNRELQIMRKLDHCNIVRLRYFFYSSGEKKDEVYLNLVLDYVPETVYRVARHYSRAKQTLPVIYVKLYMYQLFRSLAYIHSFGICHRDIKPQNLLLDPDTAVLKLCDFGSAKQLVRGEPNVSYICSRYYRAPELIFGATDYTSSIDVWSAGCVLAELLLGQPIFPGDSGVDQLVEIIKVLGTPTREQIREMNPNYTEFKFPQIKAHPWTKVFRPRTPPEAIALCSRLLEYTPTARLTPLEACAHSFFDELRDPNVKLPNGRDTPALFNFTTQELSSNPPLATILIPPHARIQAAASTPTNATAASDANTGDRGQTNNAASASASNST
Test Name: Inhibition of GSK3beta
pKi: −log10 of the molar value.
Measured Property: pKi

COc1cnc2oc3ccc(O)cc3c2c1-c1ccccc1 | 4.83

I = Oc1cc2c(oc3ncc(OCc4ccccc4)c(-c4ccccc4)c32)c2ccccc12
II = COc1ccc2oc3ncc(OCc4ccccc4)c(-c4ccccc4)c3c2c1
III = Oc1ccc2oc3ncc(OCc4ccccc4)c(-c4ccccc4)c3c2c1
Arrange the 3 compounds from largest to smallest pKi. Answer by listing the labels in the requested order. II, I, III

---

Experimental System: Cyclin-dependent kinase 5/CDK5 activator 1 (Homo sapiens, UniProt Q00535)
Sequence (Q00535 whole entry): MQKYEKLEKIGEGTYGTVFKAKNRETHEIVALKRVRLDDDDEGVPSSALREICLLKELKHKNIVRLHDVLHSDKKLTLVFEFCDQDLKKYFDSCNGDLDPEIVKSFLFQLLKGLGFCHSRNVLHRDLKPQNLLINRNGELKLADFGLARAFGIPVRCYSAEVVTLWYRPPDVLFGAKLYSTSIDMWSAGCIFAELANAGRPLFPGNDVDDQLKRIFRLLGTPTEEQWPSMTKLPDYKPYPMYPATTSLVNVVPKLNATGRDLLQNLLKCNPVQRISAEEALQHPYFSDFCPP
Sequence (Q15078 whole entry, further chain): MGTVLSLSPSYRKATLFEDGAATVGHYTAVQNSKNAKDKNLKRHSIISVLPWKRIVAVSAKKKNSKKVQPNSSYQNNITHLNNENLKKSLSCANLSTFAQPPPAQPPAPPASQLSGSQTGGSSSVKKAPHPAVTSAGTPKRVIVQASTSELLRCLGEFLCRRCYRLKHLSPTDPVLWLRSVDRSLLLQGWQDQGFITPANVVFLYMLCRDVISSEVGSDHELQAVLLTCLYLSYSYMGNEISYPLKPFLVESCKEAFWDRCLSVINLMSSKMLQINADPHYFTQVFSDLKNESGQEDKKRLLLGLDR
Test Name: Inhibition of CDK5/p25
pKi: −log10 of the molar value.
Measured Property: pKi

Record excerpt, results attached:
Oc1cc2c(oc3ncc(OCc4ccccc4)c(-c4ccccc4)c32)c2ccccc12 | 5.68
Oc1cnc2oc3c4ccccc4c(O)cc3c2c1-c1ccccc1 | 7.15
Cc1cc2oc3ncc(OCc4ccccc4)c(-c4ccccc4)c3c2cc1O | 4.60

P = COc1ccc2oc3ncc(OCc4ccccc4)c(-c4ccccc4)c3c2c1
Q = Oc1ccc2oc3ncc(O)c(-c4ccccc4)c3c2c1
I need your help: which of the pair P , Q has higher pKi? Pick one and reply with its label. Q
(Q: 6.96, P: 4.58)
